STUDY SYSTEM: Epidermal growth factor receptor (Homo sapiens, UniProt P00533)
Sequence (P00533 whole entry, the tested form may be a part): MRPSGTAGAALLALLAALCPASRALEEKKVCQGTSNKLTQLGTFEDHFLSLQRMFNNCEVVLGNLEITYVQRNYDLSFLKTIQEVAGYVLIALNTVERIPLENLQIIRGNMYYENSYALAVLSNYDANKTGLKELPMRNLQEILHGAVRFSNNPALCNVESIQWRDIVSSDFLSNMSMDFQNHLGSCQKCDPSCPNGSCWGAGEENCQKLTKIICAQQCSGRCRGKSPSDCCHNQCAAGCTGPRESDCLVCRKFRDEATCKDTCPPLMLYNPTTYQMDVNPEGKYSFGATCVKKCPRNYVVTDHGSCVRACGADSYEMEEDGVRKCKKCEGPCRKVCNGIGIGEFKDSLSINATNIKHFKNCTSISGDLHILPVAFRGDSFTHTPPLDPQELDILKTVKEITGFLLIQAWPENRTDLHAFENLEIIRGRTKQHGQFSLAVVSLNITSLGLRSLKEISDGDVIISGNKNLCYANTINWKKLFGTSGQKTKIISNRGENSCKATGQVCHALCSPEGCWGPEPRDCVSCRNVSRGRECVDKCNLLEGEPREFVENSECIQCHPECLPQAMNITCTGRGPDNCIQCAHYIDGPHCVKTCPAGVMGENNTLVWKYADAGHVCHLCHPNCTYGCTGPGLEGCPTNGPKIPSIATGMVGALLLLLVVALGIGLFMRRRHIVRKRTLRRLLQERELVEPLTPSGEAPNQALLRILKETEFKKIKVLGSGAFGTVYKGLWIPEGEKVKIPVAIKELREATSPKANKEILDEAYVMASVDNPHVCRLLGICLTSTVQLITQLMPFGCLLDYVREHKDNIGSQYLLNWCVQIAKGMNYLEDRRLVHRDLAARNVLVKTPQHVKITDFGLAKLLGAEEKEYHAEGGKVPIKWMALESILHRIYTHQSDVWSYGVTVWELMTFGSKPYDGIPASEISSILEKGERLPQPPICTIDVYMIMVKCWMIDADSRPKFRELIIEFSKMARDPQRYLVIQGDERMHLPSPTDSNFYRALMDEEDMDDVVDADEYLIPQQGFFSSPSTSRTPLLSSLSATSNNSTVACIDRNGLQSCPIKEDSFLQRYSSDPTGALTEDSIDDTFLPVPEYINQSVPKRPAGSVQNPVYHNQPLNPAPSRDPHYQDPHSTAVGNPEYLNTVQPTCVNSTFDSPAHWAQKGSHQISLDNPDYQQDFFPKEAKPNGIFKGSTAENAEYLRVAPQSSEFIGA
PROCEDURE SUMMARY: Inhibition of His6-tagged EGFR cytoplasmic domain (645 to 1186 residues) (unknown origin) expressed in baculovirus infected Sf9 insect cells after 10 mins by DELFIA/time-resolved fluorometry
pIC50: −log10 of the molar value.
Rule: Met for pIC50 not less than 6, Not met for anything less.

Examples with answers:
[
  {
    "SMILES REPRESENTATION": "COc1ccc(/C=C/C(=O)c2ccc(NC(=O)c3cc4cc5cc(C)ccc5nc4s3)cc2)cc1OC",
    "STUDY SYSTEM": "Epidermal growth factor receptor (Homo sapiens, UniProt P00533)",
    "ASSIGNED CLASS": "Met"
  },
  {
    "SMILES REPRESENTATION": "COc1cc(/C=C/C(=O)c2ccc(NC(=O)c3cc4cc5cc(C)ccc5nc4s3)cc2)cc(OC)c1OC",
    "STUDY SYSTEM": "Epidermal growth factor receptor (Homo sapiens, UniProt P00533)",
    "ASSIGNED CLASS": "Not met"
  },
  {
    "SMILES REPRESENTATION": "COc1cccc(/C=C/C(=O)c2ccc(NC(=O)c3cc4cc5cc(OC)ccc5nc4s3)cc2)c1",
    "STUDY SYSTEM": "Epidermal growth factor receptor (Homo sapiens, UniProt P00533)",
    "ASSIGNED CLASS": "Not met"
  },
  {
    "SMILES REPRESENTATION": "COc1cccc(/C=C/C(=O)c2ccc(NC(=O)c3cc4cc5cc(C)ccc5nc4s3)cc2)c1",
    "STUDY SYSTEM": "Epidermal growth factor receptor (Homo sapiens, UniProt P00533)",
    "ASSIGNED CLASS": "Not met"
  }
]

Okay, now this compound:
Determine whether this compound has pIC50 no lower than 6: COc1ccc(/C=C/C(=O)c2ccc(NC(=O)c3cc4cc5ccccc5nc4s3)cc2)cc1OC Not met

---

Tested on: PANC-1
PROCEDURE SUMMARY: Antiproliferative activity against human PANC1 cells after 48 hrs by propidium iodide fluorescence assay
Assay type: functional, cell-based
CONDITION PARAMETERS: PANC-1, 48 h
Let's look at some compounds and their measured pIC50.
// scale note: pIC50 = -log10(conc_M); give the bare number

[
  {
    "SMILES REPRESENTATION": "COc1cccc(/C=C/C(=O)c2ccc(NC(=O)c3cc4cc5cc(OC)ccc5nc4s3)cc2)c1",
    "pIC50": 5.35
  },
  {
    "SMILES REPRESENTATION": "COc1ccc2nc3sc(C(=O)Nc4ccc(C(=O)/C=C/c5ccc(OC)c(OC)c5)cc4)cc3cc2c1",
    "pIC50": 6.00
  },
  {
    "SMILES REPRESENTATION": "COc1ccc2nc3sc(C(=O)Nc4ccc(C(=O)/C=C/c5ccc(Cl)cc5)cc4)cc3cc2c1",
    "pIC50": 4.86
  }
]

# pIC50 lookup, item O=C(/C=C/c1ccc(Cl)cc1)c1ccc(NC(=O)c2cc3cc4ccccc4nc3s2)cc1 5.23

Bench note: what pIC50 did COc1cc(/C=C/C(=O)c2ccc(NC(=O)c3cc4cc5ccccc5nc4s3)cc2)cc(OC)c1OC show? 5.85
